This collection of values is drawn from the supplement of paper PMC10567573.

B1: FBF1 (parent)
chain: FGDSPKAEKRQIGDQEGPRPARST

Variants of: B1
Experiment: protein stability index of a GFP-peptide fusion (GPS, HEK-293T) (PSI 1-6); higher = more stable;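 note: lentivirally expressed fusions sorted by FACS into six bins by GFP to DsRed ratio, PSI derived from sequencing read proportions per bin multiplied by bin number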
Conditions: c terminus: a fixed tail appended
Everything with protein stability index lower than 5 is label 0; everything else, including exactly 5, is label 1.

Field: example entries. Status: answers known.
{"columns": ["mutant label", "discrete label"],
 "data": [
  ["F1P", "label 1"],
  ["K9S", "label 1"],
  ["Q15V", "label 0"],
  ["R22F", "label 0"],
  ["I12V", "label 1"]
]}

Req: protein stability index >= 5 for "S4F" ?
Resp: label 0

Req: Textbook exercise: given the entry "G13P" , state whether its protein stability index is greater than or equal to 5.
Resp: label 1

Req: Tell me whether protein stability index is at least 5 here: "D3V"
Resp: label 1

Req: Record "R10H" ; criterion: protein stability index no lower than 5. Met?
Resp: label 0

Req: For this variant, is measured protein stability index 5 or higher? "K9R"
Resp: label 1

Req: Could you please find out whether "E16Y" has protein stability index that meets 5 or exceeds it?
Resp: label 0

Req: In plain terms: is recorded protein stability index at least 5 for "P18M" ?
Resp: label 0

Req: Could you please find out whether "A21K" has protein stability index that meets 5 or exceeds it?
Resp: label 1

Req: Could you please find out whether "P5D" has protein stability index that meets 5 or exceeds it?
Resp: label 1
